- System: Mus musculus
- protocol summary: The effect on electroshock protection in mice following oral administration
- Format: functional
Each item that follows carries a reported ED50.

Examples from the recorded data:
>>> reported("CN(C)CCCN=c1c2ccccc2ccc2ccccc12")
"> 324 mg/kg"
>>> reported("CC(=O)N1Cc2ccccc2/C(=N\\CCN(C)C)c2ccccc21")
"> 324 mg/kg"
>>> reported("CN(C)CCCN=c1c2ccccc2oc2ccccc12")
"> 324 mg/kg"
>>> reported("CN(C)CCN=C1c2ccccc2C2C(c3ccccc31)C2(Cl)Cl (stereo not given)")
"> 324 mg/kg"

Attention now turns to another entry.
// query Annotate the compound CN(C)CC/N=C1\c2ccccc2CCc2ccc(Cl)cc21 (mixture of isomers) with its measured ED50.
// result 60 mg/kg

---

- Test system: Mus musculus
- protocol summary: The effect on electroshock protection in mice following oral administration
- Assay type: functional
observed property: ED50 (mg/kg)
Quick note: give the figure in mg/kg, leave out the unit.

// query Enter measured ED50, system Mus musculus, for the molecule shown: NCCN=C1c2ccccc2CCc2ccccc21
// result 200

// query Quote ED50 with test system Mus musculus for CN(C)CCCN1c2ccccc2CCc2ccccc21
// result 209

// query Would you please give the reported ED50 of CCN(CC)CCN=C1c2ccccc2C2CC2c2ccccc21 (stereo not drawn) with Mus musculus?
// result 100

// query Find ED50 for CCNCCN=C1c2ccccc2CCc2ccccc21 on Mus musculus and write it down.
// result 60

// query Quote ED50 with test system Mus musculus for CN(C)CCC=C1c2ccccc2COc2ccccc21 [DOXEPIN]
// result 62

// query Quote Mus musculus ED50 for entry NCCN=C1c2ccccc2C2CC2c2ccccc21 (stereo not drawn) .
// result 100

// query Enter measured ED50, system Mus musculus, for the molecule shown: CN(C)CC/N=C1\c2ccccc2COc2ccccc21
// result 60

---

# Lookup of reported ED50 keyed by entry
- Test system: Mus musculus
- protocol summary: The effect on electroshock protection in mice following oral administration
- Format: functional

For orientation, consider the following solved cases.
>>> reported("CN(C)CC/N=C1\\c2ccccc2CSc2ccccc21")
"> 324 mg/kg"
>>> reported("c1ccc2c(c1)C(=NCCN1CCCCC1)c1ccccc1C1CC21 (stereo not drawn)")
"> 324 mg/kg"
>>> reported("CCN(CC)CCN=C1c2ccccc2CCc2ccccc21")
"200 mg/kg"
>>> reported("CN(C)CCCN=C(c1ccccc1)c1ccccc1")
"> 324 mg/kg"
>>> reported("CN(C)CCC/N=C1\\c2ccccc2CN(C)c2ccccc21")
"> 324 mg/kg"

// query Kindly indicate its recorded ED50. Item: CCNCCN=C1c2ccccc2C2CC2c2ccccc21 (stereo not drawn)
// result > 324 mg/kg

// query Assign ED50 to the following record: CNCCN=C1c2ccccc2C2CC2c2ccccc21 (stereo not drawn)
// result 300 mg/kg

// query Provide ED50 value for the following compound: CN(C)CCC=C1c2ccccc2CCc2ccccc21
// result 43 mg/kg

// query Provide only the value of recorded ED50 for CN(C)CCN=C1c2ccccc2CCc2ccccc21
// result 36 mg/kg

// query Please report the measured ED50 for CN(C)CC/N=C1\c2ccccc2C2CC2c2ccc(Cl)cc21 (stereo not drawn)
// result 200 mg/kg

// query Quote ED50 reported for CN(C)CCN=c1c2ccccc2sc2ccccc12 please.
// result > 324 mg/kg

// query Check the records and state ED50 for CN(C)CCN=C1c2ccccc2C(C)(C)c2ccccc21
// result > 324 mg/kg

// query For CN(C)CCN=C(c1ccccc1)c1ccccc1 , write its ED50.
// result > 200 mg/kg
